All values here come from patent US8574563B2.

# System: HCV 1b-377-neo replicon cells
# measurementDescription: HCV replicon assay, HCV 1b-377-neo replicon cells (1b FRET)
# Type: cell-based, Hepatitis C virus genotype 1b
# assaySetup: HCV 1b-377-neo replicon cells; HCV 1b genotype
endpointName: EC50 range against HCV 1b (Table 2, Range)

COC(=O)NC(C)(C)C(=O)N1CCC[C@H]1c1ncc(-c2ccc(-c3ccc(-c4cnc([C@@H]5CCCN5C(=O)C(C)(C)NC(=O)OC)[nH]4)cc3)cc2)[nH]1 [Example M7] :: >A
CCN(CC)[C@@H](C(=O)N1CCC[C@H]1c1ncc(-c2ccc(-c3ccc(-c4cnc([C@@H]5CCCN5C(=O)[C@@H](C(C)C)N(CC)CC)[nH]4)cc3)cc2)[nH]1)C(C)C [Example M10] :: >A
COC(=O)N[C@@H](C(=O)N1CCC[C@@H]1c1ncc(-c2ccc(-c3ccc(-c4cnc([C@H]5CCCN5C(=O)[C@H](NC(=O)OC)C5CC5)[nH]4)cc3)cc2)[nH]1)C1CC1 [Example M29] :: >A

* * *

# System: HCV 1b-377-neo replicon cells
# measurementDescription: HCV replicon assay, HCV 1b-377-neo replicon cells (1b FRET)
# Type: cell-based, Hepatitis C virus genotype 1b
# assaySetup: HCV 1b-377-neo replicon cells; HCV 1b genotype; read-out: EC50 range against HCV 1b (Table 2, Range)
pEC50: −log10 of the molar value.
endpointName: pEC50

COC(=O)N[C@@H](C(=O)N1CCC[C@H]1c1ncc(-c2ccc(-c3ccc(-c4cnc([C@@H]5CCCN5C(=O)Cc5ccccc5CN5CCCCC5)[nH]4)cc3)cc2)[nH]1)c1ccccc1 :: 9.00 to 12.00
COC(=O)NC(C(=O)N1CCCC1c1ncc(-c2ccc(-c3ccc(-c4cnc(C5CCCN5C(=O)C(c5csc6ccccc56)N(C)C)[nH]4)cc3)cc2)[nH]1)c1ccccc1 (stereo not drawn) :: 9.00 to 12.00
COC(=O)N[C@@H](C(=O)N1CCC[C@H]1c1ncc(-c2ccc(-c3ccc(-c4cnc([C@@H]5CCCN5C(=O)C(c5ccc(Cl)cc5)N(C)C)[nH]4)cc3)cc2)[nH]1)c1ccccc1 (stereo partly drawn) :: 9.00 to 12.00
COC(=O)N[C@@H](C(=O)N1CCC[C@H]1c1ncc(-c2ccc(-c3ccc(-c4cnc([C@@H]5CCCN5C(=O)[C@@H]5CCCN5C)[nH]4)cc3)cc2)[nH]1)c1ccccc1 :: 9.00 to 12.00
COC(=O)N[C@@H](C(=O)N1CCC[C@H]1c1ncc(-c2ccc(-c3ccc(-c4cnc([C@@H]5CCCN5C(=O)c5ccncc5)[nH]4)cc3)cc2)[nH]1)c1ccccc1 :: 9.00 to 12.00

Item: COC(=O)NC(C(=O)N1CCCC1c1nc(-c2ccc(-c3ccc(-c4cnc(C5CCCN5C(=O)CN5CCCC5)[nH]4)cc3)cc2)c[nH]1)c1ccccc1 (stereo not drawn) | pEC50: 9.00 to 12.00

Kindly note the recorded pEC50 for COC(=O)N[C@@H](CC(N)=O)C(=O)N1CCC[C@H]1c1ncc(-c2ccc(-c3ccc(-c4cnc([C@@H]5CCCN5C(=O)[C@@H](NC(=O)OC)C(C)C)[nH]4)cc3)cc2)[nH]1 [Example M91y] , which is 6.00 to 7.00

# pEC50 of "CCC[C@H](NC(=O)OC)C(=O)N1CCC[C@H]1c1ncc(-c2ccc(-c3ccc(-c4cnc([C@@H]5CCCN5C(=O)[C@H](CCC)NC(=O)OC)[nH]4)cc3)cc2)[nH]1" = 7.00 to 9.00

The reported pEC50 of the compound "COC(=O)N[C@H](C(=O)N1CCC[C@H]1c1ncc(-c2ccc(-c3ccc(-c4cnc([C@@H]5CCCN5C(=O)N5CCN(C)CC5)[nH]4)cc3)cc2)[nH]1)C(C)C" was 7.00 to 9.00

Entry "CC(C)[C@H](NS(=O)(=O)C(C)C)C(=O)N1CCC[C@H]1c1ncc(-c2ccc(-c3ccc(-c4cnc([C@@H]5CCCN5C(=O)[C@@H](NS(=O)(=O)N(C)C)C(C)C)[nH]4)cc3)cc2)[nH]1" , pEC50 reported as 6.00 to 7.00

Briefly, pEC50 measured for "CN(C)CC(=O)N[C@@H](C(=O)N1CCC[C@H]1c1ncc(-c2ccc(-c3ccc(-c4c[nH]c([C@@H]5CCCN5C(=O)[C@H]5CCCO5)n4)cc3)cc2)[nH]1)c1ccccc1" : 7.00 to 9.00

Record "COC(=O)N[C@@H](CCN1CCOCC1)C(=O)N1CCC[C@H]1c1ncc(-c2ccc(-c3ccc(-c4cnc([C@@H]5CCCN5C(=O)[C@@H](NC(=O)OC)C(C)C)[nH]4)cc3)cc2)[nH]1" , field pEC50: 6.00 to 7.00
